Provide the reported pIC50 of each item.
# System: HepG2
# assay.overview: Growth inhibition of human HepG2 cells incubated for 72 hrs by MTT assay
# Type: functional, cell-based
# recorded.conditions: HepG2, 72 h
Please keep in mind that pIC50 is minus log10 of the molar concentration; only the number is needed.

Which pIC50 is reported for this compound? CCOc1cccc(Nc2nn(C)c3c2Cc2cc(OCC)c(OCC(=O)NCCC#N)cc2-3)c1
5.62

Which pIC50 is reported for this compound? CCOc1cccc(Nc2nn(C)c3c2Cc2cc(OCC)c(OCC(=O)NCCN)cc2-3)c1
5.85

Which pIC50 is reported for this compound? COc1cc2c(c(OC)c1OC)-c1ccc(OC)c(=O)cc1[C@@H](NC(C)=O)CC2 [COLCHICINE]
7.72

Which pIC50 is reported for this compound? CCOc1cccc(Nc2nn(C)c3c2Cc2cc(OCC)c(OCC(=O)NCCN(C)C)cc2-3)c1
6.47

Which pIC50 is reported for this compound? CCNC(=O)COc1cc2c(cc1OCC)Cc1c(Nc3cccc(OCC)c3)nn(C)c1-2
5.88

Which pIC50 is reported for this compound? CCOc1cccc(Nc2nn(C)c3c2Cc2cc(OCC)c(OCC(=O)NCCO)cc2-3)c1
5.74

Which pIC50 is reported for this compound? CCOc1cccc(Nc2nn(C)c3c2Cc2cc(OCC)c(OCC(=O)NO)cc2-3)c1
7.79

Reference source for all entries: ChEMBL document CHEMBL4428037
